src = patent US20250163127A1

Target: CTLA-4 (Homo sapiens (Human)) (UniProt P16410)
Sequence (P16410 36-223): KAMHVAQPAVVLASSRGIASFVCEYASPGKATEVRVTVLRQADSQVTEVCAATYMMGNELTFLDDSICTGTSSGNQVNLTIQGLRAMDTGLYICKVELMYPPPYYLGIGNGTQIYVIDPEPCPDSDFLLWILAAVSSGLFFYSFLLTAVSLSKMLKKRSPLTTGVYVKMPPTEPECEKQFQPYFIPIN
Assay: flow cytometry, transfected cells
Task for the reader: assign each of the following binders its reported MFI ratio to WT (ΔWT).
Answers are plain numbers, in fold.

{"columns": ["Binder", "Unit string", "MFI ratio to WT (ΔWT)"],
 "data": [
  ["ICOSL-Fc N52C/N57E/Q100S (Fc fusion) DTQEKEVRAMVGSDVELSCACPEGSRFDLNDVYVYWQTSESKTVVTYHIPQCSSLEEVDSRYRNRALMSPAGMLRGDFSLRLFNVTPQDEQKFHCLVLSSSLGFQEVLSVEVTLHVAANFSVPVVSAPHSPSQDELTFTCTSINGYPRPNVYWINKTDNSLLDQALQNDTVFLNMRGLYDVVSVLRIARTPSVNIGCCIENVLLQQNLTVGSQTGNDIGERDKITENPVSTGEKNAAT", "fold", 0.03]
]}

Input ICOSL-Fc N52R/N57F/Q100T (Fc fusion) DTQEKEVRAMVGSDVELSCACPEGSRFDLNDVYVYWQTSESKTVVTYHIPQRSSLEFVDSRYRNRALMSPAGMLRGDFSLRLFNVTPQDEQKFHCLVLSTSLGFQEVLSVEVTLHVAANFSVPVVSAPHSPSQDELTFTCTSINGYPRPNVYWINKTDNSLLDQALQNDTVFLNMRGLYDVVSVLRIARTPSVNIGCCIENVLLQQNLTVGSQTGNDIGERDKITENPVSTGEKNAAT , output reported MFI ratio to WT (ΔWT). 1.08
